B1: CCDC6 (parent)
chain: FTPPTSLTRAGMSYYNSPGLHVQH

# Variants of: B1
# method summary: protein stability index of a GFP-peptide fusion (GPS, HEK-293T) (PSI 1-6); higher = more stable;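 further: lentivirally expressed fusions sorted by FACS into six bins by GFP to DsRed ratio, PSI derived from sequencing read proportions per bin multiplied by bin number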
# stated conditions: c terminus: a fixed tail appended
protein stability index below 2 gives false (0); protein stability index at or above it gives true (1).

# residue change, label value
data = [
    ("Q23R", "true (1)"),
    ("P18F", "false (0)"),
    ("L20T", "true (1)"),
    ("M12E", "true (1)"),
    ("G11D", "false (0)"),
]

Input line: Check if protein stability index >= 2 (inclusive). Item: F1T
Output line: true (1)

Input line: Check if protein stability index >= 2 (inclusive). Item: R9D
Output line: true (1)

Input line: Check if protein stability index >= 2 (inclusive). Item: T2L
Output line: false (0)

Input line: Check if protein stability index >= 2 (inclusive). Item: R9A
Output line: true (1)

Input line: Check if protein stability index >= 2 (inclusive). Item: P4Y
Output line: true (1)

Input line: Check if protein stability index >= 2 (inclusive). Item: H21T
Output line: false (0)

Input line: Check if protein stability index >= 2 (inclusive). Item: R9T
Output line: false (0)

Input line: Check if protein stability index >= 2 (inclusive). Item: G11M
Output line: false (0)

Input line: Check if protein stability index >= 2 (inclusive). Item: L20Q
Output line: true (1)

Input line: Check if protein stability index >= 2 (inclusive). Item: F1I
Output line: true (1)

Cited source: the supplement of paper PMC10567573
